# experiment: Drug distribution in rat tissues
# Assay type: in vivo
# assayContext: brain, read-out: exposure in brain relative to blood plasma exposure
reportedProperty: Kp

Consider CS(=O)(=O)O.Cc1ccc(C(=O)Nc2ccc(CN3CCN(C)CC3)c(C(F)(F)F)c2)cc1C#Cc1nnc2ccccn12 [methanesulfonic acid salt] . Its measured Kp is ~0.2

---

# experiment: Drug distribution in rat tissues
# Assay type: in vivo
# assayContext: bone marrow, read-out: concentration in bone marrow relative to plasma
reportedProperty: Kp
Could you keep your reply to the number by itself?

Consider CS(=O)(=O)O.Cc1ccc(C(=O)Nc2ccc(CN3CCN(C)CC3)c(C(F)(F)F)c2)cc1C#Cc1nnc2ccccn12 [methanesulfonic acid salt] . Its measured Kp is 27

---

# experiment: Daily intragastric administration during 28 days, rats
# assayContext: rat, in vivo, po, Day 28, dose of 50 mg/kg daily intragastric
reportedProperty: Cmax

Consider CS(=O)(=O)O.Cc1ccc(C(=O)Nc2ccc(CN3CCN(C)CC3)c(C(F)(F)F)c2)cc1C#Cc1nnc2ccccn12 [methanesulfonic acid salt] . Its measured Cmax is 661 ng/mL

---

# experiment: Solubility of the free base in various solvents
# Type: physicochemical
# assayContext: organic solvent or mixture, thermodynamic from solid; Isopropyl acetate; 4.0 mg in 4.0 mL; 50 °C
reportedProperty: solubility

Consider Cc1ccc(C(=O)Nc2ccc(CN3CCN(C)CC3)c(C(F)(F)F)c2)cc1C#Cc1nnc2ccccn12 [free base] . Its measured solubility is < 800 µg/mL

---

# experiment: MTD at a single administration to dogs
# assayContext: dog, in vivo, calculated as a free base
reportedProperty: MTD (mg/kg)
Answer in mg/kg, number only, no unit symbol.

Consider CS(=O)(=O)O.Cc1ccc(C(=O)Nc2ccc(CN3CCN(C)CC3)c(C(F)(F)F)c2)cc1C#Cc1nnc2ccccn12 [methanesulfonic acid salt] . Its measured MTD is 38

---

# experiment: in vivo
# assayContext: dog, in vivo; oral, dogs, 45 mg/kg
# Description: Clearance following intravenous administration is quite high: 2.12 L/h/kg for dogs, 1.61 L/h/kg for rats. A large apparent volume of distribution (Vd=14.1 L/kg for dogs, 6.16 L/kg for rats) indicates extensive drug distribution in tissues.
reportedProperty: AUC (ng·h/mL)
Answer in ng·h/mL, number only, no unit symbol.

Consider CS(=O)(=O)O.Cc1ccc(C(=O)Nc2ccc(CN3CCN(C)CC3)c(C(F)(F)F)c2)cc1C#Cc1nnc2ccccn12 [methanesulfonic acid salt] . Its measured AUC is 5170

---

# measuredTarget: Bcr-Abl (E255K) (Homo sapiens, UniProt P00519, E255K, form not given)
# Sequence (P00519 242-493 E255K limits assumed): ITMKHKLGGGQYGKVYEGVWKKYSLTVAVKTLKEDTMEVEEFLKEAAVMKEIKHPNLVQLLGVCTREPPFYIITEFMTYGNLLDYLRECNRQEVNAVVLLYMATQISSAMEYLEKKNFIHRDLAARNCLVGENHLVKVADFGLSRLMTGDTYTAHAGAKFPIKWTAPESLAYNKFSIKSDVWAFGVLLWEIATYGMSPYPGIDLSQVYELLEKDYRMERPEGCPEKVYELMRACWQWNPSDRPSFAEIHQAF
# experiment: Bcr-Abl tyrosine kinase enzyme activity
reportedProperty: IC50
Please give the number followed by its unit.

Consider CS(=O)(=O)O.Cc1ccc(C(=O)Nc2ccc(CN3CCN(C)CC3)c(C(F)(F)F)c2)cc1C#Cc1nnc2ccccn12 [methanesulfonic acid salt] . Its measured IC50 is 9.5 nM

All figures here come from patent US11225474B2.
